Tested on: NOMO1
ASSAY_OVERVIEW: cell viability relative to DMSO control; higher = less cytotoxic
PARTICULARS: RPMI 5 mM glucose + 10% FBS; 48 h; 0.0632 µM

- COMPOUND: "NC/1=N/C(=O)N(C[C@@H](CO)OC[P](O)(O)=O)/C=C1"
  UNIT_DESCRIPTOR: "%"
  cell viability: 136
- COMPOUND: "O=[S+]([O-])(/N=C/c1c(O)ccc2ccccc12)c1cccs1"
  UNIT_DESCRIPTOR: "%"
  cell viability: 129
- COMPOUND: "O=C(NCCCNc1nc(Nc2cccc(NC(=O)N3CCCC3)c2)ncc1I)c1cccs1"
  UNIT_DESCRIPTOR: "%"
  cell viability: 76.1
- COMPOUND: "CC1(C)Cc2c(sc(NC(=S)NC(=O)c3ccccc3)c2C(=O)O)CO1"
  UNIT_DESCRIPTOR: "%"
  cell viability: 105
- COMPOUND: "C/C(=C\\c1csc(C)n1)[C@@H]1C[C@@H]2O[C@@H]2CCC[C@H](C)[C@H](O)[C@@H](C)C(=O)C(C)(C)[C@@H](O)CC(=O)O1"
  UNIT_DESCRIPTOR: "%"
  cell viability: 18.1
- COMPOUND: "O=C(Nc1ccc([N+](=O)[O-])cc1Cl)c1cc(Cl)ccc1O"
  UNIT_DESCRIPTOR: "%"
  cell viability: 94.5
- COMPOUND: "O=[S+]([O-])(CCSSCC[S+](=O)([O-])[O][Na])[O][Na]"
  UNIT_DESCRIPTOR: "%"
  cell viability: 127
- COMPOUND: "CCN1\\C=C(C(O)=O)/C(=O)C2=C1C=C(N3CCN(C)CC3)C(=C2)F"
  UNIT_DESCRIPTOR: "%"
  cell viability: 106
- COMPOUND: "COc1ccccc1OCCNCC(O)COc1cccc2[nH]c3ccccc3c12 (centres undefined)"
  UNIT_DESCRIPTOR: "%"
  cell viability: 112

---

Test system: NOMO1
ASSAY_OVERVIEW: cell viability relative to DMSO control; higher = less cytotoxic
PARTICULARS: RPMI 5 mM glucose + 10% FBS; 48 h; 15.4 µM
Reported cell viability values are given for each entry in this list.

- MOLECULE: "COc1ccccc1OCCNCC(O)COc1cccc2[nH]c3ccccc3c12 (stereo unspecified)"
  cell viability, %: 113
- MOLECULE: "Cc1cc(-c2nnc3n2CCCCC3)c(C)n1-c1ccccc1"
  cell viability, %: 116
- MOLECULE: "C[C@H](NC(=O)Cc1cc(F)cc(F)c1)C(=O)N[C@@H]1C(=O)N(C)c2ccccc2-c2ccccc21"
  cell viability, %: 27.3
- MOLECULE: "O=[S+]([O-])(/N=C/c1c(O)ccc2ccccc12)c1cccs1"
  cell viability, %: 107
- MOLECULE: "C=CC(=O)Nc1cccc(Oc2nc(Nc3ccc(N4CCN(C)CC4)cc3OC)ncc2Cl)c1"
  cell viability, %: 62.1
- MOLECULE: "CCNC(=O)Nc1ccc(-c2nc3c(c(N4CCOC[C@@H]4C)n2)CCN(C2COC2)C3)cc1"
  cell viability, %: 52.8
- MOLECULE: "O=C(NCCCNc1nc(Nc2cccc(NC(=O)N3CCCC3)c2)ncc1I)c1cccs1"
  cell viability, %: 83.1
- MOLECULE: "COCCCOc1ccnc(C[S+]([O-])c2nc3ccccc3[nH]2)c1C (stereo unspecified)"
  cell viability, %: 118
- MOLECULE: "O=C(O)c1ccc(-c2c[nH]c3ncc(-c4ccccc4)cc23)cc1C1CCCC1"
  cell viability, %: 115
- MOLECULE: "COc1cccc2c(NCc3ccccc3)nc(-n3c(N)nc4ccccc43)nc12"
  cell viability, %: 102
- MOLECULE: "CN(CCOc1ccc(NS(C)(=O)=O)cc1)CCc1ccc(NS(C)(=O)=O)cc1"
  cell viability, %: 118
